# SUBJECT_OF_TEST: hCRTH2 (Homo sapiens, UniProt Q9Y5Y4)
# Construct: expressed in transfected cells; host or cells: HEK (human embryonic kidney) cells expressing hCRTH2; membrane preparation
# Sequence (Q9Y5Y4 1-395): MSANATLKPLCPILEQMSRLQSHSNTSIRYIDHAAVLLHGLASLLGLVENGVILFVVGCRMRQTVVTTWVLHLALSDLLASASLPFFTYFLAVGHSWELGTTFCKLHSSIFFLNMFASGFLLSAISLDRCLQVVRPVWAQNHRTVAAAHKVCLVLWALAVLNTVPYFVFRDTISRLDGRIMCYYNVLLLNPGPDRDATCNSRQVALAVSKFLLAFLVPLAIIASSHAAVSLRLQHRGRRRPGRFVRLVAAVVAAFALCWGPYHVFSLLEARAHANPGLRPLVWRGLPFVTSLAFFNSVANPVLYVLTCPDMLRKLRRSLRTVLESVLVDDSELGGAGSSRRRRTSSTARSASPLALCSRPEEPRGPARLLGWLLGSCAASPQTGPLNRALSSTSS
# MEASUREMENT_NOTES: Radioligand binding assay ([3H]PGD2 competition, HEK-hCRTH2 membranes)
# TEST_SETTINGS: [3H]PGD2 competition, Table B
Ki values, listed per item

MOLECULE	Ki
O=C(O)CCCCc1nc2cc(C(=O)N3CCO[C@H](c4ccc(F)cc4)C3)ccc2nc1-c1ccc(Cl)cc1	2.1 to 20 nM
C[C@H](NC(=O)c1ccc2nc(-c3ccc(F)cc3)c(CCCCC(=O)O)nc2c1)c1ccc(F)c2ccccc12	2.1 to 20 nM
C[C@H](CCCc1nc2cc(C(=O)N[C@@H]3CCCc4ccccc43)ccc2nc1-c1ccc(F)cc1)C(=O)O	2.1 to 20 nM
C[C@@H](NC(=O)c1ccc2nc(-c3ccc(F)cc3)c(CCCc3cccc(CC(=O)O)c3)nc2c1)c1ccc(F)cc1	201 to 700 nM
O=C(O)CCCCc1nc2cc(C(=O)N3CCN4CCCC4C3)ccc2nc1-c1ccc(Cl)cc1 (stereo not drawn)	2.1 to 20 nM

Next, consider the following molecule.
Query Ki for O=C(O)CCCCc1nc2cc(C(=O)N[C@@H]3CCCc4ccncc43)ccc2nc1-c1ccc(Cl)cc1
0.1 to 2 nM

* * *

# SUBJECT_OF_TEST: hCRTH2 (Homo sapiens, UniProt Q9Y5Y4)
# Construct: expressed in transfected cells; host or cells: HEK (human embryonic kidney) cells expressing hCRTH2; membrane preparation
# MEASUREMENT_NOTES: Radioligand binding assay ([3H]PGD2 competition, HEK-hCRTH2 membranes)
# TEST_SETTINGS: [3H]PGD2 binding, rated A-E (Table A)
MEASUREMENT_NAME: Ki

# return Ki for C[C@H](NC(=O)c1ccc2nc(-c3ccc(F)cc3)c(CCCCC(=O)O)nc2c1)c1ccccc1 , test system: hCRTH2 (Homo sapiens, UniProt Q9Y5Y4)
2.1 to 20 nM

# return Ki for Cc1ccc(CNC(=O)c2ccc3nc(-c4ccccc4)c(CCCCC(=O)O)nc3c2)cc1 [15AW] , test system: hCRTH2 (Homo sapiens, UniProt Q9Y5Y4)
0.1 to 2 nM

# return Ki for COc1ccc(-c2nc3ccc(C(=O)N4CCC(c5ccccc5)CC4)cc3nc2CCCCC(=O)O)c(Cl)c1 [26W] , test system: hCRTH2 (Homo sapiens, UniProt Q9Y5Y4)
0.1 to 2 nM

# return Ki for C[C@H](NC(=O)c1ccc2nc(-c3ccccc3)c(CCCCC(=O)O)nc2c1)c1ccccc1 [15B] , test system: hCRTH2 (Homo sapiens, UniProt Q9Y5Y4)
2.1 to 20 nM

# return Ki for C[C@@H](NC(=O)c1ccc2nc(-c3ccccc3)c(CCCCC(=O)O)nc2c1)c1ccccc1 [15A] , test system: hCRTH2 (Homo sapiens, UniProt Q9Y5Y4)
2.1 to 20 nM

# return Ki for CC(NC(=O)c1ccc2nc(-c3ccccc3)c(CCCCC(=O)O)nc2c1)c1ccccc1F (centres unmarked) [15BH] , test system: hCRTH2 (Homo sapiens, UniProt Q9Y5Y4)
2.1 to 20 nM

# return Ki for O=C(O)CCCCc1nc2cc(C(=O)N[C@@H](c3ccc(F)cc3)C(F)(F)F)ccc2nc1-c1ccc(F)cc1 , test system: hCRTH2 (Homo sapiens, UniProt Q9Y5Y4)
2.1 to 20 nM

# return Ki for O=C(O)CCCNc1nc2cc(C(=O)N[C@@H]3CCCc4ccccc43)ccc2nc1-c1ccccc1 [44i] , test system: hCRTH2 (Homo sapiens, UniProt Q9Y5Y4)
0.1 to 2 nM

* * *

# SUBJECT_OF_TEST: hCRTH2 (Homo sapiens, UniProt Q9Y5Y4)
# Construct: expressed in transfected cells; host or cells: HEK (human embryonic kidney) cells expressing hCRTH2; membrane preparation
# MEASUREMENT_NOTES: Radioligand binding assay ([3H]PGD2 competition, HEK-hCRTH2 membranes)
# TEST_SETTINGS: [3H]PGD2 competition, Table B
pKi: −log10 of the molar value.
MEASUREMENT_NAME: pKi

Here are 3 molecules together with their reported answers.
MOLECULE	OBS_VALUE
O=C(O)CCCCc1nc2cc(C(=O)NC3CC(=O)Nc4ccccc43)ccc2nc1-c1ccc(F)cc1 (centres unmarked)	7.70 to 8.68
O=C(O)CCCCc1nc2cc(C(=O)N3C[C@@H]4C[C@H]3CN4Cc3ccccc3)ccc2nc1-c1ccc(Cl)cc1	6.70 to 7.70
O=C(O)CCCCc1nc2cc(C(=O)N3CCCC34CCc3cc(F)ccc34)ccc2nc1-c1ccc(Cl)cc1 (centres unmarked)	7.70 to 8.68

Next, consider the following molecule.
Query pKi for O=C(O)CCCCc1nc2cc(C(=O)N[C@H]3CCCc4ncccc43)ccc2nc1-c1ccccc1
7.70 to 8.68

* * *

pKi values, listed per item
# SUBJECT_OF_TEST: hCRTH2 (Homo sapiens, UniProt Q9Y5Y4)
# Construct: expressed in transfected cells; host or cells: HEK (human embryonic kidney) cells expressing hCRTH2; membrane preparation
# MEASUREMENT_NOTES: Radioligand binding assay ([3H]PGD2 competition, HEK-hCRTH2 membranes)
# TEST_SETTINGS: [3H]PGD2 competition, Table B
pKi: −log10 of the molar value.

STRUCTURE_NOTATION	MEASUREMENT_NAME	OBS_VALUE
O=C(O)CCCCc1nc2cc(C(=O)N3CCN(c4nccs4)CC3)ccc2nc1-c1ccccc1	pKi	6.70 to 7.70
O=C(O)CCCCc1nc2cc(C(=O)N3CCN(c4ccccc4C(F)(F)F)CC3)ccc2nc1-c1ccc(F)cc1	pKi	7.70 to 8.68

# return pKi for O=C(O)CCCCc1nc2cc(C(=O)N3CCN(c4nnc(C5CC5)o4)CC3)ccc2nc1-c1ccc(Cl)cc1 , test system: hCRTH2 (Homo sapiens, UniProt Q9Y5Y4)
6.70 to 7.70

* * *

pKi values, listed per item
# SUBJECT_OF_TEST: hCRTH2 (Homo sapiens, UniProt Q9Y5Y4)
# Construct: expressed in transfected cells; host or cells: HEK (human embryonic kidney) cells expressing hCRTH2; membrane preparation
# MEASUREMENT_NOTES: Radioligand binding assay ([3H]PGD2 competition, HEK-hCRTH2 membranes)
# TEST_SETTINGS: [3H]PGD2 competition, Table B
pKi: −log10 of the molar value.

STRUCTURE_NOTATION	OBS_VALUE
C[C@H]1CN(c2ccc(Cl)cc2)CCN1C(=O)c1ccc2nc(-c3ccc(Cl)cc3)c(CCCCC(=O)O)nc2c1	7.70 to 8.68
COc1cccc(C2CN(C(=O)c3ccc4nc(-c5ccc(F)cc5)c(CCCCC(=O)O)nc4c3)C2)c1	7.70 to 8.68
O=C(O)CCCCc1nc2cc(C(=O)N[C@@H]3CC(=O)Nc4ccc(F)cc43)ccc2nc1-c1ccccc1	7.70 to 8.68

Query pKi for C[C@@H](NC(=O)c1ccc2nc(-c3ccc(Cl)cc3)c(CCCCC(=O)O)nc2c1)c1ccc(C#N)cc1
8.70 to 10.00

Query pKi for O=C(O)CCCCc1nc2cc(C(=O)N[C@H]3CCOc4ccccc43)ccc2nc1-c1ccc(Cl)cc1
8.70 to 10.00

* * *

pKi values, listed per item
# SUBJECT_OF_TEST: hCRTH2 (Homo sapiens)
# Construct: expressed in transfected cells; host or cells: HEK (human embryonic kidney) cells expressing hCRTH2; membrane preparation
# Sequence (Q9Y5Y4 1-395): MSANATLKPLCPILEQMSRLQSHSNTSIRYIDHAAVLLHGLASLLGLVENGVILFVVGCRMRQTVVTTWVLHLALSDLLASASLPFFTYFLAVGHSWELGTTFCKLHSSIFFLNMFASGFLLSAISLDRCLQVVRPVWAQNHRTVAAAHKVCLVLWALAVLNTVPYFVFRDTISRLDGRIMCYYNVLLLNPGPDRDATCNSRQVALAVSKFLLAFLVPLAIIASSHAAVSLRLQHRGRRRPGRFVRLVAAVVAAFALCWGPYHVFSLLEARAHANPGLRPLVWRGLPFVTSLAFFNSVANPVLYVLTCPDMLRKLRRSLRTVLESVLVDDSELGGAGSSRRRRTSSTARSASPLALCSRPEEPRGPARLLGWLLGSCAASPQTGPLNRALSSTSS
# MEASUREMENT_NOTES: Radioligand binding assay ([3H]PGD2 competition, HEK-hCRTH2 membranes)
# TEST_SETTINGS: [3H]PGD2 binding, rated A-E (Table A)
pKi: −log10 of the molar value.

Here are 5 compounds together with their reported answers.
COMPOUND	OBS_VALUE
O=C(O)CCCCc1nc2cc(C(=O)NC3CCCc4ccccc43)ccc2nc1-c1ccccc1 (centres unmarked) [15AR]	8.70 to 10.00
O=C(O)CCCCc1nc2cc(C(=O)N3CC(c4ccc(F)c(F)c4)C3)ccc2nc1-c1ccccc1	8.70 to 10.00
O=C(O)CCCCc1nc2cc(C(=O)N3CC(c4ccccc4)C3)ccc2nc1-c1ccccc1	8.70 to 10.00
O=C(O)CCCCc1nc2cc(C(=O)NC3Cc4ccccc4C3)ccc2nc1-c1ccccc1 [15BK]	8.70 to 10.00
O=C(O)C1CC1CCc1nc2cc(C(=O)N3CCC(c4ccccc4)CC3)ccc2nc1-c1ccccc1 (single isomer, unassigned) [20H]	7.70 to 8.68

Query pKi for O=C(O)CCCCc1nc2cc(C(=O)N[C@H]3CCCc4ccccc43)ccc2nc1-c1ccc(F)cc1
8.70 to 10.00

Query pKi for COCCn1c(=O)n(C2CCN(C(=O)c3ccc4nc(-c5ccccc5)c(CCCCC(=O)O)nc4c3)CC2)c2ccccc21
7.70 to 8.68

Query pKi for O=C(O)CCCNc1nc2cc(C(=O)N3CCC(c4ccc(Cl)cc4)CC3)ccc2nc1-c1ccccc1 [44K]
8.70 to 10.00

The origin of these recorded values is patent US9469615B2.
